Molecular target: human GPR 119 receptor (Homo sapiens, UniProt Q8TDV5)
Construct: expressed in transfected cells
Sequence (Q8TDV5 1-335): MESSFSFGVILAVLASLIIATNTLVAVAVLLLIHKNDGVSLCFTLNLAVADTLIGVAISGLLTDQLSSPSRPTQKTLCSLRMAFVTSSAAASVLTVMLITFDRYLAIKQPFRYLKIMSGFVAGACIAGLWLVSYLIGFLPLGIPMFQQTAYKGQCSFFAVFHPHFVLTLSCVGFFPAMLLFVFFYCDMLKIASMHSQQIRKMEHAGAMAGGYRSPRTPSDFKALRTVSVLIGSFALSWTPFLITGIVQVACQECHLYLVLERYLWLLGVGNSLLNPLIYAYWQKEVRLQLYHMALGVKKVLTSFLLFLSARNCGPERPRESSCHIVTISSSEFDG
Assay: cAMP assay in stable cell line expressing recombinant human GPR 119 receptor
Assay type: cell-based
Settings: 1 uM compound; DMSO = 1
Please assign a class to every record based on measured Fold increase in cyclic AMP with respective to DMSO, with ranges class 1 = under 2 fold, class 2 = from 2 fold up to 3 fold, class 3 = 3 fold and over

Here are 5 compounds together with their reported answers.
O=C1NC(=O)/C(=C/c2cccc(Oc3cc(OC4CCN(c5ncccn5)CC4)ncn3)c2)S1 [Example 42] = class 3
COC(=O)N1CCC(Oc2ncnc(Oc3cccc(/C=C4\SC(=O)NC4=O)c3)c2C)CC1 [Example 21] = class 2
CC(C)COC(=O)N1CCC(Oc2cc(Oc3cccc(/C=C4\SC(=O)NC4=O)c3)ncn2)CC1 [Example 33] = class 2
O=C1NC(=O)/C(=C/c2cccc(Oc3cc(OC4CCN(C(=O)OCc5ccccc5)CC4)ncn3)c2)S1 [Example 29] = class 3
Cc1c(Oc2cccc(/C=C3\SC(=O)NC3=O)c2)ncnc1OC1CCN(c2ncccn2)CC1 [Example 28] = class 3

Task: Into which category would you place Cc1c(Oc2ccc(/C=C3\SC(=O)NC3=O)cc2)ncnc1OC1CCN(C(=O)OC(C)C)CC1 [Example 16] ?
Output: class 3

Task: Into which category would you place COc1cc(/C=C2\SC(=O)NC2=O)ccc1Oc1cc(OC2CCN(C(=O)OC(C)(C)C)CC2)ncn1 [Example 40] ?
Output: class 1

Task: Into which category would you place COC(=O)N1CCC(Oc2ncnc(Oc3ccc(/C=C4\SC(=O)NC4=O)cc3)c2C)CC1 [Example 11] ?
Output: class 2

Task: Into which category would you place COc1cc(/C=C2\SC(=O)NC2=O)ccc1Oc1ncnc(OC2CCN(C(=O)OC(C)(C)C)CC2)c1C [Example 8] ?
Output: class 1
